Can you tell me GFP response relative to DMSO for the items I'm about to list?
Assay: LAP4-GFP expression modulators in yeast, confirmation, cell-based, cherry picks, flow cytometry, mother/daughter gates (AID 2271);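 note: ratio of sample to DMSO plate mean so 100% equals DMSO level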
Settings: S. cerevisiae LAP4-GFP strain, 3 h, measured here: daughter cell gate response, at 10 µM, stronger effect = higher value, 100 means same as DMSO control
Form entry: value (%) — number only.

Task: Look up GFP response relative to DMSO: `Cc1onc(-c2ccccc2)c1C(=O)N1CCC(C)CC1`
Result: 102

Task: Entry COc1ccc(OC)c(S(=O)(=O)N2Cc3ccccc3CC2C(=O)O)c1 (centres undefined) has what GFP response relative to DMSO?
Result: 101

Task: Recorded GFP response relative to DMSO for Cc1ccc2c(c1)c1c(c(=O)n(-c3ccccc3C)c(=O)n1CC(=O)NCC1CCCO1)n2C (centres undefined) , please?
Result: 101

Task: What does the record list as GFP response relative to DMSO for `COc1ccc(-c2csc(NC(=O)c3ccco3)n2)cc1` ?
Result: 102

Task: Quick one: GFP response relative to DMSO for `CCOc1cc(/C=C2\N=C(C)OC2=O)cc(Br)c1OCC(=O)OC` ?
Result: 128

Task: I'd like to know its GFP response relative to DMSO. The compound in question is `FC(F)(F)c1cc(-c2cccs2)nc2cc(-c3cccs3)nn12`
Result: 97.5

Task: Looking for the measured GFP response relative to DMSO of `O=C1C=CC(=O)N1c1ccc(O)cc1` , can you help?
Result: 192

Task: What measured GFP response relative to DMSO goes with `COc1cc(NC(=O)c2ccccc2F)ccc1NC(=O)c1cc2ccccc2o1` ?
Result: 97.5

Task: Recorded GFP response relative to DMSO of `Oc1ccc(C2Nc3cccc4cccc(c34)N2)cc1` , please.
Result: 105

* * *

Consider the following molecules; for each one, report its GFP response vs DMSO.
Test: modulators of MEP2-GFP levels in yeast, confirmation, S. cerevisiae, flow cytometry GFP, cherry picks (AID 2272);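 note: ratio of well signal to plate DMSO mean so 100% equals DMSO level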
Conditions: S. cerevisiae MEP2-GFP strain, 3 h, at 10 µM, stronger effect = higher value
Active and inactive are the calls of the source.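 Rule for the calls: active = GFP response above 150% of the DMSO control; inconclusive = Fewer than 70 cells counted for a yeast strain; inactive = the rest.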

Task: Name the recorded GFP response vs DMSO for `O=C(NC(=S)NNC(=O)c1cnccn1)c1ccc(F)cc1` .
Result: 104% (inactive)

Task: GFP response vs DMSO for `CN(O)/C=c1/ccc2c(n1)C(=O)C=CC=2` ?
Result: 115% (inactive)

Task: Recorded GFP response vs DMSO for `COc1ccc(Br)cc1/C=C/C(=O)c1ccc(NC(C)=O)cc1` , please?
Result: 101% (inactive)

Task: So what's the measured GFP response vs DMSO for this one? `Clc1ccc(-n2nnnc2Sc2ncnc3sccc23)cc1`
Result: 131% (inactive)

* * *

Test: inhibitors of CD8+ T cell-vesicle binding, pilot screen, LFA-1/ICAM-1 modulator project, MLPCN validation set, flow cytometry (AID 2523);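 note: mean PE anti-B7-1 fluorescence of CD8+ cells relative to row control; 100% = QL9-loaded vesicles with DMSO vehicle in the same plate row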
Settings: 2C mouse CD8+ T cells, at 7 µM, stronger effect = lower value
# strict inequality: vesicle binding response < 200% yields Yes, everything else yields No

Task: Input CCOC(=O)c1ccc(N2C(=O)C(CC(N)=O)N(CCc3ccc(OC)c(OC)c3)C2=S)cc1 (stereo not drawn) ; condition: vesicle binding response strictly below 200%. Does it hold?
Result: Yes

Task: is_below(vesicle binding response, 200%) for `CCS(=O)(=O)CCn1c([N+](=O)[O-])cnc1C` ?
Result: Yes

Task: Does the reported vesicle binding response of the following molecule sit strictly below 200%? `CCN(Cc1cnn(C)c1)Cc1nc(C(c2ccccc2)c2ccccc2)no1`
Result: Yes

Task: Hello, I'm reviewing records and need to know if vesicle binding response of O=C(Nc1ccccc1)OCC1CCCN2CCCCC12 (stereo not drawn) is below 200%. Could you check?
Result: No

Task: Here's an entry: `COC(=O)CN1CC(=O)N(c2ccccc2)C1=S` . Is its vesicle binding response below 200%?
Result: Yes

Task: Input `COC(=O)c1cc(OC)c(OC)cc1NC(=O)Nc1ccc(OC)cc1OC` ; condition: vesicle binding response strictly below 200%. Does it hold?
Result: Yes

Task: vesicle binding response under 200%? Item: `O=C(O)CCCCCCCC(=O)O`
Result: Yes

Task: Consider CO/N=C(\C(=O)N[C@@H]1C(=O)N2C(C(=O)O)=C(COC(C)=O)CS[C@H]12)c1csc(N)n1 (stereo in doubt) . Does its vesicle binding response lie strictly below 200%?
Result: No

Task: Determine if CC1(C)c2ccccc2N2CC(=O)N(CC(N)=O)C21C (stereo not drawn) shows vesicle binding response strictly lower than 200%.
Result: No

Task: Lab log: compare recorded vesicle binding response with 200%; is it strictly lower for `Nc1nc2c(ncn2COC(CO)CO)c(=O)[nH]1` ?
Result: No

Task: For `CCC(=O)c1ccc(O)cc1` , is the recorded vesicle binding response below the cut-off of 200%?
Result: No

Task: is_below(vesicle binding response, 200%) for `O=C(NCCCCCc1nc2ccccc2[nH]1)c1ccccc1Cl` ?
Result: Yes

Task: Decide: vesicle binding response of `Nc1nc2c(ncn2COCCO)c(=O)[nH]1` strictly below 200%?
Result: Yes

Task: Just wondering, is vesicle binding response of `COc1ccccc1-c1c(C(F)(F)F)oc2cc(OC(=O)c3ccc([N+](=O)[O-])cc3)ccc2c1=O` below 200%?
Result: Yes

Task: Record `Cc1cc(=O)oc(C)c1C(=O)NCCC(C)C` : is its vesicle binding response strictly below 200%?
Result: Yes

Task: Dear reviewer, please state whether CO[C@@H]1O[C@@H]2COC(c3ccccc3)O[C@@H]2[C@@H](OC)[C@@H]1O (stereo partly drawn) has vesicle binding response strictly beneath 200%.
Result: Yes

* * *

So I've got a bunch of molecules here, and I need their aptamer binding inhibition values.
Biological target: Beta-adrenergic receptor kinase 1 (Homo sapiens) (UniProt P25098)
Sequence (P25098 whole entry, looked up): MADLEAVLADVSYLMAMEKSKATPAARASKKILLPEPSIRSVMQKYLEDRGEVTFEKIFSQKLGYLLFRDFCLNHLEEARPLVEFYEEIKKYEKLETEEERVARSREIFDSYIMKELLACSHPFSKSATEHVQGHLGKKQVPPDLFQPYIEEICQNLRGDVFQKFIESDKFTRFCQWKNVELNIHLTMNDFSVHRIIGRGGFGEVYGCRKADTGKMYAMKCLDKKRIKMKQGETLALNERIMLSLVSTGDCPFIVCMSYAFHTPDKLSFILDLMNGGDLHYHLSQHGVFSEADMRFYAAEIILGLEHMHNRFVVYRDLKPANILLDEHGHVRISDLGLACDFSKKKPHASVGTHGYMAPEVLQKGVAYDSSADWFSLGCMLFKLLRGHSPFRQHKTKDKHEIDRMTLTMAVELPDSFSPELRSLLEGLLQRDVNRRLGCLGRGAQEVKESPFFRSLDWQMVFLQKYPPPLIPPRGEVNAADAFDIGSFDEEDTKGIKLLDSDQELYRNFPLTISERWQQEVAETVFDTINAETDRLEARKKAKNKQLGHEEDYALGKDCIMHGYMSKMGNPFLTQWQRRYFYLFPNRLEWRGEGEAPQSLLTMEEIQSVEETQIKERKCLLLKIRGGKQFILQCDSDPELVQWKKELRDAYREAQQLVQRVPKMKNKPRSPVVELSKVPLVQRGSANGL
Test: GRK2 binders displacing RNA aptamer, biochemical, validation, human GRK2, bead flow cytometry (AID 488806)
Settings: bead-bound GRK2, FAM-aptamer displacement, at 10 µM, stronger effect = higher value
Calls of active or inactive are those of the source.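 The calls were made as follows: active = aptamer binding inhibition above 30%, about 3 SD of noise from non-fluorescent compounds; inactive = inhibition at or below 30%.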 Peptide text beside a SMILES is read from it. * marks the point of attachment. Boc = CC(C)(C)OC(=O)*; OBn = c1ccc(CO*)cc1

Task: Please give the measured aptamer binding inhibition for this molecule: `COc1ccc(/C=C2\CCn3c2nc2cc(C(=O)O)ccc2c3=O)cc1OC`
Result: 1% (inactive)

Task: aptamer binding inhibition lookup needed for CCCOc1ccc(-c2cc(C(=O)NCC3CCCO3)c3ccccc3n2)cc1 (centres undefined) , thanks.
Result: 1% (inactive)

Task: Any idea what aptamer binding inhibition was measured for `N=C1C(c2ccccc2)=C(O)CN1CCCO` ?
Result: 3% (inactive)

Task: State the recorded aptamer binding inhibition for this entry: CO/N=C(\C(=O)N[C@@H]1C(=O)N2C(C(=O)O)=C(COC(C)=O)CS[C@H]12)c1csc(N)n1 (stereo in doubt)
Result: 3% (inactive)

Task: So what does the record say about aptamer binding inhibition for `O=C(NCCN1CCOCC1)c1ccc(Cl)cc1` ?
Result: -1% (inactive)

Task: What does the record list as aptamer binding inhibition for COc1cc(OC)c(C2C(C#N)=C(N)OC3=C2C(=O)CC(C)(C)C3)cc1OC (centres undefined) ?
Result: 2% (inactive)

Task: I have this molecule here, `CC(C)NC(=O)c1ccc(C(C)C)cc1` , and I need its recorded aptamer binding inhibition.
Result: -2% (inactive)

Task: Name the recorded aptamer binding inhibition for `COc1ccc(-c2onc(C)c2-c2ccc(C(=O)OC(C)C)o2)c(O)c1` .
Result: -3% (inactive)

Task: Entry under review: `COC(=O)c1ccc(CC(=O)c2ccc(O)cc2O)o1` . Reported aptamer binding inhibition?
Result: 4% (inactive)

Task: Query: aptamer binding inhibition; subject: `NCCCC(=O)O`
Result: 0% (inactive)

Task: Reported aptamer binding inhibition, molecule `Nc1cccc2nc3ccccc3cc12` : ____
Result: 3% (inactive)

Task: Query (molecule): `COc1ccc(C(=O)/C=C2/c3ccccc3CC(C)(C)N2C)cc1` ; field requested: aptamer binding inhibition
Result: 3% (inactive)

Task: Quick one: aptamer binding inhibition of Cn1c(=O)c2c(ncn2CC(O)CO)n(C)c1=O (centres undefined) ?
Result: 2% (inactive)

Task: Using the record for `CC(C)CCOCC(=O)Nc1cccc(C(=O)O)c1` , report its aptamer binding inhibition.
Result: 1% (inactive)

Task: Requested field: aptamer binding inhibition. Item: `N#Cc1c2c(c(-c3ccccc3)[nH]c1=O)CCCC2`
Result: 3% (inactive)

Task: Report aptamer binding inhibition for `O=C(/C=C/c1ccccc1)/C=C/c1ccccc1` please.
Result: 2% (inactive)

Task: Fill blank: measured aptamer binding inhibition of the molecule COc1ccc2c(c1OC)C(=O)NC(C)=C(C(=O)OC(C)(C)C)C2O (centres undefined) is ____.
Result: 4% (inactive)

Task: Need aptamer binding inhibition of `COC(=O)c1cc(-c2ccc(OC)c(OC)c2)on1` , thanks.
Result: -1% (inactive)

Task: // query aptamer binding inhibition value for entry COc1cc(C2CC(=O)NC3=C2C(=O)CC(C)(C)C3)ccc1O (centres undefined)
Result: 4% (inactive)

Task: Find the recorded aptamer binding inhibition belonging to CC1(C)CC(=O)C(C2(O)C(=O)Nc3ccccc32)CO1 (centres undefined) and report it.
Result: 3% (inactive)

Task: Given the entry `CC1(C)Cc2nc3oc4c(NCc5ccccc5)ncnc4c3cc2CO1` , report its measured aptamer binding inhibition.
Result: -2% (inactive)

Task: What value of aptamer binding inhibition has been reported for the following molecule? `COc1c2occc2c(OC)c2c(=O)cc(C)oc12`
Result: 1% (inactive)

Task: Value lookup for aptamer binding inhibition; key = `Cc1[nH]c2ccccc2c1C(=O)CN1CCCC1`
Result: -4% (inactive)

Task: I have this molecule here, CC(=O)NCCCC(=O)NC(CCC(=O)OCc1ccccc1)C(=O)OCc1ccccc1 (centres undefined) , and I need its recorded aptamer binding inhibition.
Result: 1% (inactive)

Task: Returns the measured aptamer binding inhibition for the input molecule. Input: `COc1ccc(/C=C2\CCc3ccccc3C2=O)c(OC)c1OC`
Result: 3% (inactive)

Task: Quick check: aptamer binding inhibition of `CCOC(=O)C(=O)Nc1ccc(Oc2ccccc2)cc1` ?
Result: 3% (inactive)

Task: // returns reported aptamer binding inhibition for input CC/C(=C1/C(=O)CC(C)(C)C(C(=O)OC)C1=O)N1CCCC1 (centres undefined)
Result: 3% (inactive)

Task: Could you share which aptamer binding inhibition value was measured for CC(C)CC(NC(=O)C(NC(=O)OC(C)(C)C)C(C)C)C(=O)NC(CCC(=O)OCc1ccccc1)C(N)=O (stereo not drawn) (Boc-Val-Leu-Glu(OBn)-NH2; configuration not given here) ?
Result: 0% (inactive)

Task: Request the reported aptamer binding inhibition associated with COc1ccc(C(=O)C2CCCCC2=O)cc1 (centres undefined)
Result: 0% (inactive)

Task: Please report the recorded aptamer binding inhibition for `COc1ccc(-c2cc3cc(OC)c(OC)cc3c(C)n2)cc1` .
Result: 6% (inactive)

Task: # get_value(readout='aptamer binding inhibition', item= Cn1cc(CN2CCCC(CO)(Cc3cccc(Cl)c3)C2)cn1 (centres undefined) )
Result: 0% (inactive)

Task: Please look up its aptamer binding inhibition: `C=CCc1cc(Cl)ccc1OCCOCCN(C)C`
Result: 4% (inactive)

Task: What aptamer binding inhibition value was documented for this molecule, `COCCn1c(/C=C/c2ccccc2)nc2ccccc21` ?
Result: 2% (inactive)

Task: What value of aptamer binding inhibition has been recorded for this entry: `Cc1nc(C)c(C)nc1C`
Result: -3% (inactive)
